target: PLA2 (Homo sapiens); construct: The enzyme is isolated from human platelets; from tissue; host or cells: human platelets; assay: PLA2 Inhibition Assay (14C-oleate labeled E. coli membrane substrate); type: biochemical; details: 100 μM (sic, Table 6); PLA2 from human platelets; pH 7, 37° C.
MEASUREMENT NAME: % Inhibition of PLA2 at 100 .infin.M (%)
# number only, unit % dropped from output

% Inhibition of PLA2 at 100 .infin.M for CC1(C)CCC(C)(C)c2cc(COc3ccccc3-c3ccccc3C(=O)O)ccc21 [Structure 52c] is 72

% Inhibition of PLA2 at 100 .infin.M reported for this compound CC1(C)CCC(C)(C)c2cc(COc3ccccc3-c3cccc(CC(=O)O)c3)ccc21 [Structure 57] : 92

Given item CC1(C)CCC(C)(C)c2cc(COc3ccccc3-c3cccc(C(=O)O)c3)ccc21 [Structure 52a] , the value recorded as its % Inhibition of PLA2 at 100 .infin.M is 83

Measured % Inhibition of PLA2 at 100 .infin.M of CC1(C)CCC(C)(C)c2cc(COc3ccccc3-c3ccc(C(=O)O)cc3)ccc21 [Structure 52b] : 66

###

Molecular target: PLA2 (Homo sapiens, UniProt P14555)
Construct: The enzyme is isolated from human platelets; from tissue; host or cells: human platelets
Sequence (P14555 21-144): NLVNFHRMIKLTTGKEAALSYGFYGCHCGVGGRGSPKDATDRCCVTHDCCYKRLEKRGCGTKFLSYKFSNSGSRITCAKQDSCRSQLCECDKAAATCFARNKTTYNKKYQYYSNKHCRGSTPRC
Test: PLA2 Inhibition Assay (14C-oleate labeled E. coli membrane substrate)
Format: biochemical
Details: 100 μM; PLA2 from human platelets; pH 7, 37° C.
Experimental: The method used is similar to that reported by Franson, et al. [Jesse, R. L. and Franson R. C., Biochim. Biophys. Acta 575: 467-470 (1979); Franson, R. C., Patriarca, P., and Elsback, P., J. Lipid Res. 15: 380-388 (1974)]. The enzyme is isolated from human platelets. The substrate used consists of ^14 C-oleate labeled Escherichia coli membranes. […] Percent inhibition is determined by the equation: [formula]
Assignment: determine reported inhibition at 100 µM for the given compounds.
Answer with a number only, understood to be in %.

Lab entry: PLA2 (Homo sapiens, UniProt P14555) assay, compound CC1(C)CCC(C)(C)c2cc(COc3cccc(CCC(=O)O)c3-c3cccc(C(=O)O)c3)ccc21 [Structure 37d] , inhibition at 100 µM = 54

The observed inhibition at 100 µM for CCCCCCCCCCOc1ccc(COc2cccc(C(=O)O)c2-c2ccccc2)cc1 [Structure 14k] when tested with PLA2 (Homo sapiens, UniProt P14555) stands at 99

The recorded inhibition at 100 µM with PLA2 (Homo sapiens, UniProt P14555) for CC1(C)CCC(C)(C)c2cc(COc3cccc(/C=C/C(=O)O)c3-c3cccc(C(=O)O)c3)ccc21 [Structure 39d] was 72

Form field, inhibition at 100 µM with PLA2 (Homo sapiens, UniProt P14555), item CCCCCOc1ccc(COc2cccc(C(=O)O)c2-c2ccccc2)cc1OC(C)=O [Structure 14f] : 30

Form: item CCCCCOc1ccc(COc2cccc(CCC(=O)O)c2-c2cccc(C(=O)O)c2)cc1OCCCCC [Structure 37c] ; test system PLA2 (Homo sapiens, UniProt P14555); inhibition at 100 µM: 59

Field inhibition at 100 µM (system: PLA2 (Homo sapiens, UniProt P14555)) for entry CCCCCOc1ccc(COc2cccc(/C=C/C(=O)O)c2-c2cccc(C(=O)O)c2)cc1OCCCCC [Structure 39c] = 59

Log: PLA2 (Homo sapiens, UniProt P14555), compound C/C(=C\c1cccc(CC(=O)O)c1-c1cccc(C(=O)O)c1)c1ccc2c(c1)C(C)(C)CCC2(C)C [Structure 28b] , inhibition at 100 µM = 96

###

biological target: PLA2 (Homo sapiens, UniProt P14555); construct: The enzyme is isolated from human platelets; from tissue; host or cells: human platelets; test: PLA2 Inhibition Assay (14C-oleate labeled E. coli membrane substrate); type: biochemical; details: 100 μM; PLA2 from human platelets; pH 7, 37° C.
MEASUREMENT NAME: inhibition at 100 µM (%)
Record the value in %, omitting the unit from your answer.

Short answer for O=C(O)Cc1cccc(/C=C/c2ccccc2)c1-c1cccc(C(=O)O)c1 [Structure 28a] : inhibition at 100 µM was 28

Form: compound = CC1(C)CCC(C)(C)c2cc3cc(-c4cccc(CC(=O)O)c4-c4cccc(C(=O)O)c4)ccc3cc21 [Structure 28c] ; inhibition at 100 µM = 93

get_value(item= `CC1(C)CCC(C)(C)c2cc(COc3ccc(C(=O)O)cc3-c3ccccc3)ccc21` , readout=inhibition at 100 µM) returns 70

Recorded result, O=C(O)CCc1cccc(OCc2ccc(OC3CCCC3)c(OC3CCCC3)c2)c1-c1cccc(C(=O)O)c1 [Structure 37b] , inhibition at 100 µM: 51

Form field inhibition at 100 µM, entry O=C(O)c1cccc(-c2c(OCc3ccc(OC4CCCC4)c(OC4CCCC4)c3)cccc2C(=O)O)c1 [Structure 14d] : 73

Kindly note the recorded inhibition at 100 µM for CC1(C)CCC(C)(C)c2cc(COc3cccc(C(=O)O)c3-c3cccc(C(=O)O)c3)ccc21 [Structure 14m] , which is 54

inhibition at 100 µM in this record for CC1(C)CCC(C)(C)c2cc(COc3cccc(C(=O)O)c3-c3ccc(CCO)cc3)ccc21 [Structure 14p] : 88

###

molecular target: PLA2 (Homo sapiens, UniProt P14555); construct: The enzyme is isolated from human platelets; from tissue; host or cells: human platelets; test: PLA2 Inhibition Assay (14C-oleate labeled E. coli membrane substrate); format: biochemical; settings: 100 μM; PLA2 from human platelets; pH 7, 37° C.
MEASUREMENT NAME: inhibition at 100 µM (%)
Give the number; % is assumed, so skip it.

Data point: CCOC(=O)c1cccc(-c2c(OCc3ccc4c(c3)C(C)(C)CCC4(C)C)cccc2C(=O)O)c1 [Structure 14l] ; inhibition at 100 µM = 54

Reported inhibition at 100 µM for COc1cc(COc2cccc(C(=O)O)c2-c2cccc(C(=O)O)c2)ccc1C12CC3CC(CC(C3)C1)C2 [Structure 14h] was 62

In plain terms, CCCCCCCCCCOc1ccc(COc2cccc(CC(=O)O)c2-c2cccc(C(=O)O)c2)cc1 [Structure 30c] has a documented inhibition at 100 µM of 99

The compound listed as `CC1(C)CCC(C)(C)c2cc(COc3c(C(=O)O)cccc3-c3ccccc3)ccc21` has a reported inhibition at 100 µM of 88

Entry CCCCCOc1ccc(COc2cccc(C(=O)O)c2-c2cccc(C(=O)O)c2)cc1OCCCCC [Structure 14c] , inhibition at 100 µM reported as 53

Noted for CC(C)=CCOc1ccc(COc2cccc(C(=O)O)c2-c2cccc(C(=O)O)c2)cc1OCC=C(C)C [Structure 14b] : its inhibition at 100 µM reads 20

Recorded values, source patent US5391817A.
